- TEST NAME: AUC (0 to last) in eccentric contraction-induced muscle injury C57BL/6N mouse model administered orally for 10 mins prior to unilateral eccentric contraction and QD for 16 days thereafter
- Type: ADME
- Parameters: time 16 day, route po
- CONDITION: in vivo, po
QUANTITY NAME: AUC(0-t) at 384 h (ng·h/mL)
Answer in ng·h/mL, number only, no unit symbol.

The reported value for CC(C)(O)[C@H]1CC[C@H](NC(=O)c2cnc3nc(C4CC4)ccc3c2)CC1 in terms of AUC(0-t) at 384 h is 5300

----------
- TEST NAME: Cmax in Wistar Han rat at 30 mg/kg/day, po QD for 7 days
- Type: ADME, organism-based
- Parameters: time 7 day, dose 30 mg/kg/day, route po
- CONDITION: in vivo
QUANTITY NAME: Cmax (ng/mL)
Answer in ng/mL, number only, no unit symbol.

The reported value for CC(C)(O)[C@H]1CC[C@H](NC(=O)c2cnc3nc(C4CC4)ccc3c2)CC1 in terms of Cmax is 24000

----------
- TEST NAME: Ratio of drug level in muscle to plasma in C57BL/6N mouse administered orally for 10 mins prior to unilateral eccentric contraction and QD for 16 days thereafter
- Type: toxicity, cell-free, Muscle tissue/plasma
- CONDITION: route po, time 16 day
QUANTITY NAME: Kp at 384 h
Just the number, please, no unit attached.

The reported value for CC(C)(O)[C@H]1CC[C@H](NC(=O)c2cnc3nc(C4CC4)ccc3c2)CC1 in terms of Kp at 384 h is 0.56

----------
- TEST NAME: Cmax in mdx mouse administered orally 10 mins prior to unilateral eccentric contraction and QD for 43 days thereafter
- Format: ADME
- Set-up: time 43 day, route po
- CONDITION: in vivo, po
QUANTITY NAME: Cmax (ng/mL)
Answer in ng/mL, number only, no unit symbol.

The reported value for CC(C)(O)[C@H]1CC[C@H](NC(=O)c2cnc3nc(C4CC4)ccc3c2)CC1 in terms of Cmax is 260

----------
- TEST NAME: Volume of distribution at steady state in rat at 0.4 mg/kg, iv
- Format: ADME, organism-based
- CONDITION: in vivo, read-out: Vdss
QUANTITY NAME: Vd (L/kg)
Answer in L/kg, number only, no unit symbol.

The reported value for CC(C)(O)[C@H]1CC[C@H](NC(=O)c2cnc3nc(C4CC4)ccc3c2)CC1 in terms of Vd is 1.6

----------
- TEST NAME: AUC in Wistar Han rat at 100 mg/kg/day, po QD for 7 days
- Type: ADME, organism-based
- Parameters: time 7 day, dose 100 mg/kg/day, route po
- CONDITION: in vivo
QUANTITY NAME: AUC at 168 h (µg·h/mL)
Answer in µg·h/mL, number only, no unit symbol.

The reported value for CC(C)(O)[C@H]1CC[C@H](NC(=O)c2cnc3nc(C4CC4)ccc3c2)CC1 in terms of AUC at 168 h is 820

----------
- TEST NAME: Inhibition of m-PGES (unknown origin)
- Set-up: species or system Homo sapiens
pIC50: −log10 of the molar value.
QUANTITY NAME: pIC50

The reported value for CC(C)(O)[C@H]1CC[C@H](NC(=O)c2cnc3nc(C4CC4)ccc3c2)CC1 in terms of pIC50 is < 4.00

----------
# reported pEC50; entries follow
- ASSAYED TARGET: Hematopoietic prostaglandin D synthase (Rattus norvegicus, UniProt O35543)
- TEST NAME: Inhibition of H-PGDS in rat RBL cells assessed as reduction in A23187-induced PGD2 production pretreated for 30 mins followed by A23187 addition for 30 mins by RapidFire Mass spectrometry
- Assay type: cell-based
Worth noting: pEC50 values are minus log10 of concentrations stated in mol/L.

The following compounds have reported results that may help.
C[C@H]1CCN1c1nc2ncc(C(=O)N[C@H]3CCNC3=O)cc2cc1Cl: 8.42
C[C@H]1CCN1c1nc2ncc(C(=O)N[C@H]3CC[C@](C)(O)CC3)cc2cc1Cl: 8.43
O=C(N[C@H]1CC[C@H](N2CC(F)C2)CC1)c1cnc2cc(C3CC3)ncc2c1: 6.55

CC(C)(O)[C@H]1CC[C@H](NC(=O)c2cnc3nc(C4CC4)ccc3c2)CC1 tested on Hematopoietic prostaglandin D synthase (Rattus norvegicus, UniProt O35543) gave pEC50: 7.38

CC(N[C@H]1CC[C@H](NC(=O)c2cnc3nc(C4CC4)ccc3c2)CC1)C(F)F (mixture of isomers) tested on Hematopoietic prostaglandin D synthase (Rattus norvegicus, UniProt O35543) gave pEC50: 7.55

CC(C)(O)[C@H]1C[C@H](NC(=O)c2cnc3nc(C4CC4)c(Cl)cc3c2)C1 tested on Hematopoietic prostaglandin D synthase (Rattus norvegicus, UniProt O35543) gave pEC50: 7.96

----------
- TEST NAME: Terminal half life in dog at 0.5 mg/kg, iv
- Assay type: ADME, organism-based, Canis lupus familiaris
- CONDITION: in vivo, read-out: beta t1/2 (converted)
QUANTITY NAME: half-life (h)
Answer in h, number only, no unit symbol.

The reported value for CC(C)(O)[C@H]1CC[C@H](NC(=O)c2cnc3nc(C4CC4)ccc3c2)CC1 in terms of half-life is 6.2

----------
- TEST NAME: Solubility of the compound in FaSSIF at pH 6.5 measured after 4 hrs by HPLC-UV analysis
- Type: ADME
Label rule, in plain words: solubility at 4 h of 400 µg/mL and up is satisfied, under 400 µg/mL is not satisfied.

Check out these entries, answers already filled in.
C[C@]1(O)C[C@H](NC(=O)c2cnc3nc(C4CC4)c(Cl)cc3c2)C1: satisfied
C[C@H]1CCN1c1ccc2cc(C(=O)N[C@H]3CC[C@H](C(C)(C)O)CC3)cnc2n1: not satisfied

Lookup: Does the molecule COc1ccc2cc(C(=O)N[C@H]3CC[C@H](C(C)(C)O)CC3)cnc2n1 have recorded solubility at 4 h that is 400 µg/mL or more?
Found: not satisfied

Lookup: Does the molecule CC(C)(O)[C@H]1CC[C@H](NC(=O)c2cnc3nc(N4CCC4)ccc3c2)CC1 have recorded solubility at 4 h that is 400 µg/mL or more?
Found: not satisfied

----------
- TEST NAME: Oral bioavailability in mouse at 3 mg/kg
- Assay type: ADME, organism-based
- CONDITION: in vivo
# reported bioavailability; entries follow
Answer in %, number only, no unit symbol.

The following molecules have reported results that may help.
CC(C)(O)[C@H]1CC[C@H](NC(=O)c2cnc3nc(C4CC4)ccc3c2)CC1: 71
CC(C)(O)[C@H]1CC[C@H](NC(=O)c2cnc3cc(C4CC4)ncc3c2)CC1: 130

The reported value for CC(C)(O)[C@H]1CC[C@H](NC(=O)c2cnc3cc(OC(F)F)ccc3c2)CC1 in terms of bioavailability is 61

----------
- TEST NAME: Cmax in Wistar Han rat at 10 mg/kg/day, po QD for 7 days
- Type: ADME, organism-based
- Set-up: time 7 day, dose 10 mg/kg/day, route po
- CONDITION: in vivo
QUANTITY NAME: Cmax (ng/mL)
Answer in ng/mL, number only, no unit symbol.

The reported value for CC(C)(O)[C@H]1CC[C@H](NC(=O)c2cnc3nc(C4CC4)ccc3c2)CC1 in terms of Cmax is 8700

----------
# reported Papp at 3 h; entries follow
- TEST NAME: Apparent permeability, Papp of the compound at pH 7.4 incubated for 3 hrs by AMP based liquid chromatography
- Format: ADME
- CONDITION: not told
Answer in ×10⁻⁶ cm/s, number only, no unit symbol.

CC(C)(O)[C@]12C[C@@](NC(=O)c3cnc4nc(C5CC5)ccc4c3)(C1)C2: 3.4
CC(C)(O)[C@H]1CC[C@H](NC(=O)c2cnc3cc(N4CCC4)ncc3c2)CC1: 7.8
CC(C)(O)[C@H]1CC[C@H](NC(=O)c2cnc3nc(C4CC4)ccc3c2)CC1: 4.4
CC(C)(O)[C@H]1CC[C@H](NC(=O)c2cnc3nc(C4CC4)ncc3c2)CC1: 2.2
O=C(N[C@H]1CCNC1=O)c1cnc2cc(C3CC3)ncc2c1: 3

The reported value for COc1cc2ncc(C(=O)N[C@H]3CC[C@H](C(C)(C)O)CC3)cc2cn1 in terms of Papp at 3 h is 6.1

----------
# reported EC50; entries follow
- ASSAYED TARGET: Hematopoietic prostaglandin D synthase (Rattus norvegicus)
- Sequence (O35543 whole entry): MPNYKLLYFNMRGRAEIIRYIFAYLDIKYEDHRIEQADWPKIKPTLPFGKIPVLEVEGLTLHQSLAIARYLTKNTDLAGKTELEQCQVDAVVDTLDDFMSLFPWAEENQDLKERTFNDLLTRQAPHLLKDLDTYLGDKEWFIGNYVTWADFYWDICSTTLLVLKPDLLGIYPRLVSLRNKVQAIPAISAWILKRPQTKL
- TEST NAME: Inhibition of H-PGDS in rat RBL cells assessed as reduction in A23187-induced PGD2 production pretreated for 30 mins followed by A23187 addition for 30 mins by RapidFire Mass spectrometry
- Format: cell-based
Answer in nM, number only, no unit symbol.

The following molecules have reported results that may help.
CC(C)(O)[C@H]1CC[C@H](NC(=O)c2cnc3cnccc3c2)CC1: 39000
COc1cc2ncc(C(=O)N[C@H]3CC[C@H](C(C)(C)O)CC3)cc2cn1: 190

C[C@]1(O)C[C@@H](NC(=O)c2cnc3nc(C4CC4)c(Cl)cc3c2)C1 tested on Hematopoietic prostaglandin D synthase (Rattus norvegicus) gave EC50: 54
